Measured values drawn from PubChem BioAssay (NCATS) for this set.

tested on: C2A; assay: qHTS profiling for inhibitors of Plasmodium falciparum proliferation (AID 504749); note: nearly all actives have a fitted effect of over 60% in size; conditions: P. falciparum in erythrocytes, SYBR Green DNA, 72 h; series mostly up to 28.7 µM
Inconclusive results are not listed. The source made the active and inactive calls. Calls come from the whole dose curve; as a rule, active = well fitted inhibition curve with a large enough effect; inconclusive = small, poorly fitted or top-dose-only effect; inactive = flat fitted curve, though single readings scatter.
Response enum: active, inactive

Previously resolved entries follow.
# COMPOUND, TEST TARGET, CLASSIFICATION
rows = [
    ("Cc1ccc(S(=O)(=O)N[C@@H](CCCCN)C(=O)CCl)cc1", "C2A", "active"),
    ("c1ccc2c(c1)OCC(C1=NCCN1)O2 (centres undefined)", "C2A", "inactive"),
    ("CC1OC(C)OC(C)O1 (centres undefined)", "C2A", "inactive"),
    ("Oc1ccccc1-c1ccccc1", "C2A", "inactive"),
    ("O=C(NC(O)C(Cl)(Cl)Cl)NC(O)C(Cl)(Cl)Cl (centres undefined)", "C2A", "inactive"),
]

[ask] How was CC(C)(C)CC(C)(C)c1ccc(O)cc1 classified in this test?
[reply] inactive

[ask] How was CC(C)(N)Cc1ccc(Cl)cc1 classified in this test?
[reply] inactive

[ask] How was Cc1cccc(C)c1NC1=NCCCS1 classified in this test?
[reply] inactive

[ask] How was COc1ccccc1N1CCNCC1 classified in this test?
[reply] inactive

[ask] How was O=C(O)c1ccc2[nH]cc(CCCCN3CC=C(c4ccccc4)CC3)c2c1 classified in this test?
[reply] inactive

[ask] How was c1ccc(C2CC2)c(OCC2=NCCN2)c1 classified in this test?
[reply] inactive

[ask] How was CN(C)CCc1ccc(O)cc1 classified in this test?
[reply] inactive

[ask] How was NCC(O)c1ccc(O)cc1 (centres undefined) classified in this test?
[reply] inactive

[ask] How was COc1ccc(C(CN(C)C)C2(O)CCCCC2)cc1 (centres undefined) classified in this test?
[reply] inactive

---

assay: qHTS of pediatric cancer cell lines to identify multiple opportunities for drug repurposing: Primary screen for OHS-50 cells (AID 1347103); settings: OHS-50 osteosarcoma viability, CellTiter-Glo luminescence, 48 h; series mostly up to 57.3 µM; note: nearly all actives have a fitted effect of over 40% in size
Records with an inconclusive call do not appear. Activity calls are given as the source filed them. Calls follow the shape of the dose curve; as a rule, active = well fitted cell-killing curve with a large enough effect; inconclusive = small, poorly fitted or top-dose-only effect; inactive = no such curve, though single readings can be large or run the other way.
Response enum: true for active, false for inactive

Previously resolved entries follow.
# COMPOUND, CLASSIFICATION
rows = [
    ("C[C@@H]1[C@@H](C(=O)C[C@H]2O[C@@H]3O[C@]4(C)CC[C@@H]5[C@H](C)CC[C@@H]([C@H]2C)[C@@]35OO4)O[C@@H]2O[C@]3(C)CC[C@H]4[C@H](C)CC[C@@H]1[C@@]24OO3", "true"),
    ("C=C1CC[C@@]2(O)[C@H]3Cc4ccc(O)c5c4[C@@]2(CCN3CC2CC2)[C@H]1O5", "false"),
    ("CCC1(C2=NCCN2)Cc2ccccc2O1 (configuration not stated)", "false"),
    ("C[C@]12CCC(=O)C(O)=C1CC[C@@H]1[C@@H]2CC[C@]2(C)C(=O)CC[C@@H]12", "false"),
    ("COC[C@@H](NC(C)=O)C(=O)NCc1ccccc1", "false"),
    ("CO[C@]12CC[C@@]3(C[C@@H]1[C@](C)(O)C(C)(C)C)[C@@H]1Cc4ccc(O)c5c4[C@@]3(CCN1CC1CC1)[C@H]2O5", "true"),
]

Moving on to the next compound.
[ask] How was CN1CCN(C(=O)O[C@H]2c3nccnc3C(=O)N2c2ccc(Cl)cn2)CC1 classified in this test?
[reply] false

---

assay: Quantitative High-Throughput drug screen in 47 multiple myeloma cell lines against the NCATS MIPE library collection: KMS12PE_JCRB cell viability assay (AID 1918972); conditions: KMS12PE myeloma viability, CellTiter-Glo ATP, 48 h; series mostly up to 45.8 µM; note: nearly all actives have a fitted effect of over 30% in size; note: potency is the fitted concentration of half-maximal effect
Records with an inconclusive call do not appear. The source made the active and inactive calls. Calls come from the whole dose curve; as a rule, active = well fitted cell-killing curve with a large enough effect; inconclusive = small, poorly fitted or top-dose-only effect, or effect the other way; inactive = no such curve, though single readings can be large or run the other way.
MEASUREMENT NAME: Potency

# COMPOUND, MEASUREMENT NAME, RESULT
records = [
    ("C[C@@H]1O[C@@H](O[C@H]2C[C@@H](O)[C@]3(CO)[C@H]4[C@H](O)C[C@]5(C)[C@@H](C6=CC(=O)OC6)CC[C@]5(O)[C@@H]4CC[C@]3(O)C2)[C@H](O)[C@H](O)[C@H]1O", "Potency", "0.0105 µM (active)"),
    ("C#CCN(C)[C@H](C)Cc1ccccc1", "Potency", "inactive"),
    ("NCC1(CC(=O)O)CCCCC1", "Potency", "inactive"),
    ("CC1=C2C[C@@H]3[C@@H](CC=C4C[C@@H](O)CC[C@@]43C)[C@@H]2CC[C@]12O[C@H]1C[C@H](C)CN[C@H]1[C@H]2C", "Potency", "inactive"),
]

[ask] // Potency lookup, key: CN(C)CCN(C)CCc1ccc(Cl)c(Cl)c1
[reply] 23.5 µM (active)

[ask] // Potency lookup, key: COC[C@H]1OC(=O)c2coc3c2[C@@]1(C)C1=C(C3=O)C2CCC(=O)[C@@]2(C)C[C@H]1OC(C)=O (some centres undefined)
[reply] 16.6 µM (active)

---

assay: qHTS for Inhibitors of the Functional Ribonucleoprotein Complex (vRNP) of Lymphocytic Choriomeningitis Arenaviruses (LCMV): Viability assay - alamar blue signal for LCMV Primary Screen (AID 1347085); conditions: alamar blue viability counter-screen, LCMV vRNP screen cells; series mostly up to 57.5 µM; note: nearly all actives have a fitted effect of over 80% in size
Records with an inconclusive call do not appear. Calls of active or inactive are those of the source. Calls come from the whole dose curve; tested in HEK293 reporter line.
Response enum: active, inactive

# COMPOUND, CLASSIFICATION
data = [
    ("CN(C)/N=N/c1nc[nH]c1C(N)=O", "inactive"),
    ("O=C1CCc2cc(OCCCCc3nnnn3C3CCCCC3)ccc2N1", "inactive"),
]

[ask] How was CCN(CC)CCOC(=O)C(O)(c1ccccc1)c1ccccc1 classified in this test?
[reply] inactive

[ask] How was CCOC(=O)c1ncn2c1CN(C)C(=O)c1cc(F)ccc1-2 classified in this test?
[reply] inactive

[ask] How was CCCCN1C[C@H](O)[C@@H](O)[C@H](O)[C@H]1CO classified in this test?
[reply] inactive

[ask] How was Cc1onc(-c2ccccc2Cl)c1C(=O)N[C@@H]1C(=O)N2[C@@H]1SC(C)(C)[C@@H]2C(=O)O classified in this test?
[reply] inactive

[ask] How was C[C@@H]1[C@@H](C(=O)C[C@H]2O[C@@H]3O[C@]4(C)CC[C@@H]5[C@H](C)CC[C@@H]([C@H]2C)[C@@]35OO4)O[C@@H]2O[C@]3(C)CC[C@H]4[C@H](C)CC[C@@H]1[C@@]24OO3 classified in this test?
[reply] active

---

target: Pyruvate kinase (Leishmania mexicana) (UniProt Q27686); test: qHTS Validation Assay for Inhibitors of Leishmania Mexicana Pyruvate Kinase (AID 945); details: purified L. mexicana pyruvate kinase, enzyme activity, E451W mutant enzyme; series mostly up to 57.5 µM
Activity calls are given as the source filed them. The call rests on the fitted dose curve; in most records, active means well fitted inhibition curve with a large enough effect; inconclusive means small, poorly fitted or top-dose-only effect; inactive means no such curve, though single readings can be large or run the other way.
MEASUREMENT NAME: outcome

In the examples that follow, each entry is paired with its recorded outcome.
# MOLECULE, outcome
data = [
    ("Fc1ccc(C(OCCN2CCN(CCCc3ccccc3)CC2)c2ccc(F)cc2)cc1", "inactive"),
    ("CCn1cc(C(=O)O)c(=O)c2ccc(C)nc21", "inactive"),
    ("Cc1cccc(C)c1NC1=NCCCS1", "inactive"),
    ("NCC(CC(=O)O)c1ccc(Cl)cc1 (stereo unspecified)", "inactive"),
    ("O=c1[nH]c2ccccc2n1CCCN1CCC(n2c(=O)[nH]c3cc(Cl)ccc32)CC1", "inactive"),
]

[ask] // outcome lookup, key: O=c1[nH]c2ccccc2n1C1CCN(CCCC(c2ccc(F)cc2)c2ccc(F)cc2)CC1
[reply] inactive

---

test system: DFO2036; assay: qHTS profiling for inhibitors of Plasmodium falciparum proliferation (AID 504749); note: nearly all actives have a fitted effect of over 60% in size; conditions: P. falciparum in erythrocytes, SYBR Green DNA, 72 h; series mostly up to 28.7 µM
Results filed as inconclusive are left out. Calls of active or inactive are those of the source. The call rests on the fitted dose curve; in most records, active means well fitted inhibition curve with a large enough effect; inconclusive means small, poorly fitted or top-dose-only effect; inactive means flat fitted curve, though single readings scatter.
Response enum: active, inactive

Previously resolved entries follow.
# COMPOUND, CLASSIFICATION
rows = [
    ("CC1OC(C)OC(C)O1 (configuration not stated)", "inactive"),
    ("NCC1(CC(=O)O)CCCCC1", "inactive"),
    ("FC(F)(F)c1cccc(C2=CCN(CCc3ccc4ccccc4c3)CC2)c1", "inactive"),
]

[ask] How was COc1ccc(C(=O)c2c(C)n(CCN3CCOCC3)c3ccccc23)cc1 classified in this test?
[reply] inactive

[ask] How was CN1C[C@H](CNC(=O)OCc2ccccc2)C[C@@H]2c3cccc4c3c(cn4C)C[C@H]21 classified in this test?
[reply] active

[ask] How was COc1ccccc1N1CCNCC1 classified in this test?
[reply] inactive

[ask] How was CCCC(C)(COC(N)=O)COC(=O)NC(C)C (configuration not stated) classified in this test?
[reply] inactive
